The reported measurements were obtained from paper PMC9482650.

- system: SCRIB_2, Q14160
- Sequence (Q14160 857-960): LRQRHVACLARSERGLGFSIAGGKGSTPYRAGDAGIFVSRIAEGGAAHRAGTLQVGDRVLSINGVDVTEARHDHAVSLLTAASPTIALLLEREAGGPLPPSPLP
- run description: holdup assay
- Parameters: key: below the threshold = too weak to quantify, mostly under pKd 3.1 to 4
- setup conditions: plain residues with an end cap or a label only (N-terminal biotin on a linker: ttds)
Recorded pKd values for a group of binders are listed next.

| binder | pKd |
| --- | --- |
| SRSRRRETAL [HPV33-E6, P06427] | 4.61 |
| SHSSKGETAV [FZD7, O75084] | 4.58 |
| QRPYRRESEI [KCNJ12, Q14500] | 3.56 |
